Each recorded value in this set is attributed to patent US20230219965A1.

testName: ADME solubility determination in PBS at pH 2.0 and pH 7.4
Type: physicochemical
measurementSetup: phosphate buffered saline, 25 °C, pH 7.4, aqueous buffer, thermodynamic from solid, PBS pH 7.4, 25° C., read-out: Solubility at pH 7.4
readoutLabel: solubility at 24 h

- molecule: "COc1ncnc(C2CC2)c1-c1nc2n(n1)CCC(=O)N2Cc1ccc(-c2nc(C(F)(F)F)cn2C(C)C)c(Cl)c1"
  solubility at 24 h: "≥ 10 µM"
- molecule: "Cc1cnn(C(C)C)c1-c1nn2c(c1Cl)N(Cc1ccc(-c3nc(C(F)(F)F)cn3C(C)C)c(F)c1)CCC2"
  solubility at 24 h: "< 10 µM"
- molecule: "COc1ncnc(C2CC2)c1-c1nc2n(n1)CCC(=O)N2[C@@H](C)c1ccc(-n2nc(C(F)(F)F)cc2C)c(F)c1"
  solubility at 24 h: "≥ 10 µM"
- molecule: "CCn1cc(C(F)(F)F)nc1-c1c(F)cc(CN2C(=O)CCn3nc(-c4c(OC)ncnc4C4CC4)nc32)cc1OC"
  solubility at 24 h: "≥ 10 µM"
- molecule: "CCn1cc(C(F)(F)F)nc1-c1ccc(C(C)N2C(=O)CCn3nc(-c4c(Cl)cnn4C(C)C)cc32)cc1F (stereo not shown)"
  solubility at 24 h: "< 10 µM"
- molecule: "COc1ncnc(C2CC2)c1-c1nc2n(n1)CCC(=O)N2[C@@H](C)c1ccc(-c2nc(C(F)(F)F)cn2C(C)C)c(F)c1"
  solubility at 24 h: "≥ 10 µM"

Now consider a different molecule.
Look up solubility at 24 h for this molecule: COc1ncnc(C2CC2)c1-c1nc2n(n1)CCC(=O)N2[C@@H](C)c1ccc(-c2nc(C(F)(F)F)cn2C(C)C)cc1
≥ 10 µM

* * *

tgt: USP1/UAF1 enzyme (Homo sapiens)
testName: USP1/UAF1 deubiquitination assay (ubiquitin-rhodamine 110 substrate)
measurementSetup: read-out: USP1 IC50 (Ub-Rho)
pIC50: −log10 of the molar value.
Reported pIC50 is given for each of the following compounds.

- compound: "COc1ncnc(C2CC2)c1-c1cc2n(n1)CCC(C)N2Cc1ccc(-c2nc(C(F)(F)F)cn2C)cc1 (racemic) [Example 48]"
  pIC50: "> 7.00"
- compound: "COc1ncnc(C2CC2)c1-c1nc2n(n1)CCC(=O)N2[C@@H](C)c1ccc(-c2nc(C(F)(F)F)cn2C)c(F)c1 [Example 196]"
  pIC50: "6.30 to 7.00"
- compound: "CC(C)n1ncc(Cl)c1-c1cc2n(n1)CCC(=O)N2Cc1ccc(-c2ncccc2OC(F)(F)F)c(Cl)c1 [Example 279]"
  pIC50: "< 6.30"

Now consider a different compound.
Look up pIC50 for this compound: CCn1cc(C(F)(F)F)nc1-c1ccc(NC2CCCn3nc(-c4c(Cl)cnn4C(C)C)cc32)cn1 (stereo not shown) [Example 245]
> 7.00

* * *

testName: ADME solubility determination in PBS at pH 2.0 and pH 7.4
Type: physicochemical
measurementSetup: phosphate buffered saline, 25 °C, pH 7.4, aqueous buffer, thermodynamic from solid, PBS pH 7.4, 25° C., read-out: Solubility at pH 7.4
Reported solubility at 24 h is given for each of the following molecules.

- molecule: "CCn1cc(C(F)(F)F)nc1-c1ccc([C@@H](C)N2C(=O)CCn3nc(-c4c(OC(F)F)ncnc4C4CC4)nc32)cc1"
  readoutLabel: "solubility at 24 h"
  result: "≥ 10 µM"

Look up solubility at 24 h for this molecule: Cc1cnn(C(C)C)c1-c1cc2n(n1)CCC(=O)N2Cc1ccc(-c2nc(C(F)(F)F)cn2C)cc1
≥ 10 µM

Look up solubility at 24 h for this molecule: CCn1cc(C(F)(F)F)nc1-c1ccc(CN2C(=O)[C@@H](C)Cn3nc(-c4c(OC)ncnc4C4CC4)nc32)cc1F (single isomer, unassigned)
< 10 µM

Look up solubility at 24 h for this molecule: Cc1cnn(C(C)C)c1-c1nc2n(n1)CCC(=O)N2Cc1ccc(-c2nc(C(F)(F)F)cn2C(C)C)cc1
< 10 µM

Look up solubility at 24 h for this molecule: CCn1cc(C(F)(F)F)nc1-c1ccc(NC2CCCn3nc(-c4c(OC(F)F)ncnc4C4CC4)cc32)cc1 (stereo not drawn)
< 10 µM

Look up solubility at 24 h for this molecule: CCn1cc(C(F)(F)F)nc1-c1ccc([C@H](C)N2C(=O)CCn3nc(-c4c(OC)ncnc4C4CC4)cc32)cc1
≥ 10 µM

Look up solubility at 24 h for this molecule: CCn1cc(C(F)(F)F)nc1-c1ccc(CN2C(=O)CCn3nc(-c4c(OC)ncnc4C4CC4)nc32)cc1
≥ 10 µM

Look up solubility at 24 h for this molecule: COc1cc(CN2C(=O)CCn3nc(-c4c(Cl)cnn4C(C)C)nc32)ccc1-c1nc(C(F)(F)F)cn1C(C)C
< 10 µM

Look up solubility at 24 h for this molecule: CCn1cc(C(F)(F)F)nc1-c1ccc(O[C@H]2CCCn3nc(-c4c(OC)ncnc4C4CC4)cc32)cc1F (single isomer, unassigned)
< 10 µM

Look up solubility at 24 h for this molecule: COc1ccc(C(F)(F)F)nc1-c1ccc(CN2C(=O)CCn3nc(-c4c(Cl)cnn4C(C)C)cc32)cc1Cl
< 10 µM

Look up solubility at 24 h for this molecule: CCn1cc(C(F)(F)F)nc1-c1ccc(CN2C(=O)CCn3nc(-c4c(Cl)cnn4C4(COC)CC4)cc32)cc1
< 10 µM

Look up solubility at 24 h for this molecule: COc1c(CN2C(=O)CCn3nc(-c4c(Cl)cnn4C(C)C)nc32)ccc(-c2nc(C(F)(F)F)cn2C(C)C)c1F
< 10 µM

Look up solubility at 24 h for this molecule: CC(C)n1cc(C(F)(F)F)nc1-c1ccc(CN2CCCn3nc(-c4c(Cl)cnn4C(C)C)cc32)cc1F
< 10 µM

* * *

testName: Liver microsomal metabolic stability, rat liver microsomes (RLM)
measurementSetup: rat, liver microsomes, t1/2 (min) in RLM, 1 μM compound, 1 mg/mL microsomes, NADPH
readoutLabel: half-life at 1 μM

- compound: "CCn1cc(C(F)(F)F)nc1-c1ccc(N[C@@H]2CCCn3nc(-c4c(Cl)cnn4C(C)C)cc32)cc1 (single isomer, unassigned)"
  half-life at 1 μM: "> 25 min"
- compound: "CCn1cc(C(F)(F)F)nc1-c1ccc(CN2C(=O)C(C)Cn3nc(-c4c(Cl)cnn4C(C)C)nc32)cc1F (stereo not drawn)"
  half-life at 1 μM: "> 25 min"

Look up half-life at 1 μM for this compound: COc1ccc(C(F)(F)F)nc1-c1ccc(CN2C(=O)CCn3nc(-c4c(Cl)cnn4C(C)C)cc32)cc1Cl
< 25 min

Look up half-life at 1 μM for this compound: CCn1cc(C(F)(F)F)nc1-c1ccc(CN2C(=O)CCn3nc(-c4c(Cl)cnn4C4(COC)CC4)cc32)cc1F
< 25 min

Look up half-life at 1 μM for this compound: CCn1cc(C(F)(F)F)nc1-c1ccc([C@H](C)n2c(=O)ccn3nc(-c4c(OC)ncnc4C4CC4)cc23)cc1F (single isomer, unassigned)
> 25 min

Look up half-life at 1 μM for this compound: COc1ncnc(C2CC2)c1-c1nc2n(n1)CCC(=O)N2[C@H](C)c1ccc(-c2nc(C(F)(F)F)cn2C2CC2)cc1
> 25 min

* * *

testName: Liver microsomal metabolic stability, rat liver microsomes (RLM)
measurementSetup: rat, liver microsomes, t1/2 (min) in RLM, 1 μM compound, 1 mg/mL microsomes, NADPH
readoutLabel: half-life at 1 μM

The examples below pair each entry with its known result.
- compound: "CCn1cc(C(F)(F)F)nc1-c1ccc(Cn2c(=O)ccn3nc(-c4c(Cl)cnn4C(C)C)nc23)cc1F [Example 343]"
  half-life at 1 μM: "> 25 min"
- compound: "Cc1cnn(C(C)C)c1-c1cc2n(n1)CC(C)C(=O)N2Cc1ccc(-c2nc(C(F)(F)F)cn2C)cc1 (stereo not shown) [Example 31]"
  half-life at 1 μM: "< 25 min"

Now consider a different compound.
Look up half-life at 1 μM for this compound: CCn1cc(C(F)(F)F)nc1-c1ccc([C@@H](C)n2c(=O)ccn3nc(-c4c(OC)ncnc4C4CC4)nc23)cc1 [Example 338]
< 25 min

* * *

tgt: USP1/UAF1 enzyme (Homo sapiens, UniProt O94782)
Sequence (O94782 whole entry): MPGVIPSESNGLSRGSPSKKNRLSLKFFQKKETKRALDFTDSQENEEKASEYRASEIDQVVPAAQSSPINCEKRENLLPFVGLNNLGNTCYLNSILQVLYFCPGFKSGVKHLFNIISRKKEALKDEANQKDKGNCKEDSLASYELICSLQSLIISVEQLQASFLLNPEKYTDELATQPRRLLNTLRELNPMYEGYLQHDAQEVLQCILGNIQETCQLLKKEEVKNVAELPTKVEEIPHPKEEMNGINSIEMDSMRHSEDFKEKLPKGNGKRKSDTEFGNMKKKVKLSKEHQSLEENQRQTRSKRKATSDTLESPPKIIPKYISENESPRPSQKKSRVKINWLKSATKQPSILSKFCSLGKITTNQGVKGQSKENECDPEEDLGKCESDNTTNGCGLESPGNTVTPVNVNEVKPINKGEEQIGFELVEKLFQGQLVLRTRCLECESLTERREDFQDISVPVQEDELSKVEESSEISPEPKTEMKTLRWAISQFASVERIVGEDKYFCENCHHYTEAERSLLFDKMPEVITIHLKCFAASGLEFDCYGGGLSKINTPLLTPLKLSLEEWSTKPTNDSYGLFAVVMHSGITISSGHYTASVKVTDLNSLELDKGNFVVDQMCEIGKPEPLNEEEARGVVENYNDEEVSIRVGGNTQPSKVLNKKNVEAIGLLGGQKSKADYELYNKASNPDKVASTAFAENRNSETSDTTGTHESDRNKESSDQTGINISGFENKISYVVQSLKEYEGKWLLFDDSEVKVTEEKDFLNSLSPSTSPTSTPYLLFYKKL
Sequence (Q8TAF3 whole entry partner): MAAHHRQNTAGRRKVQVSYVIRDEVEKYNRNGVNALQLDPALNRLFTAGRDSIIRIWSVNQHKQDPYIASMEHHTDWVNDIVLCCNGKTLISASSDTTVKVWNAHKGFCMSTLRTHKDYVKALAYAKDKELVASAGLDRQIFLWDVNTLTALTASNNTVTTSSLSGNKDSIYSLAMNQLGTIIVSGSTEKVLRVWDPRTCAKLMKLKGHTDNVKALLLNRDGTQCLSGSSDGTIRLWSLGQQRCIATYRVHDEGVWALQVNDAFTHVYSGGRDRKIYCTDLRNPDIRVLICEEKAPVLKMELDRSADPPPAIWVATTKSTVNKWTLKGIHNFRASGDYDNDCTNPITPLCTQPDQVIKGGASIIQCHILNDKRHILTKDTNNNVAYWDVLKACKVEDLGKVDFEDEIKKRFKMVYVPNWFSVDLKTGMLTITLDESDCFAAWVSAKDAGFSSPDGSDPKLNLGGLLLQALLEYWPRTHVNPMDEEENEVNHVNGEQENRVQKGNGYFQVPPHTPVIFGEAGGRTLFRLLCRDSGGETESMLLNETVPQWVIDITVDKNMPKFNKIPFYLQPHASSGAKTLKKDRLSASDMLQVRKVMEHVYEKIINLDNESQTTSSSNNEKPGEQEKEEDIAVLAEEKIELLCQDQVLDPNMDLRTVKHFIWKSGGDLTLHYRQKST
testName: USP1/UAF1 deubiquitination assay (ubiquitin-rhodamine 110 substrate)
measurementSetup: read-out: USP1 IC50 (Ub-Rho)
Reported IC50 is given for each of the following compounds.

- compound: "COc1ncnc(C2CC2)c1-c1cc2n(n1)CCC(=O)N2Cc1ccc(-c2nc(C(F)(F)F)cn2C(C)C)c(F)c1"
  IC50: "< 100 nM"
- compound: "CCn1cc(C(F)(F)F)nc1-c1ccc([C@@H](C)n2c(=O)ccn3nc(-c4c(OC)ncnc4C4CC4)cc23)cc1"
  IC50: "< 100 nM"
- compound: "COc1ncnc(C2CC2)c1-c1nc2n(n1)CC(C)C(=O)N2Cc1ccc(-c2nc(C(F)(F)F)cn2C(C)CF)cc1 (stereo not shown)"
  IC50: "100 to 500 nM"

Look up IC50 for this compound: CC(C)n1ncc(Cl)c1-c1cc2n(n1)CCC(=O)N2Cc1ccc(-c2nc(C(F)(F)F)cn2C)c(F)c1
< 100 nM
